- experimental.system: T1, human IL-12Rβ2 (human, UniProt Q99665 24-862)
- T1 construct: Expressed on HEK293T cells transiently transfected with a pcDNA3 plasmid (Genscript clone OHu21785); also called hIL-12RB2; IL-12 receptor β2 subunit
- T1 sequence: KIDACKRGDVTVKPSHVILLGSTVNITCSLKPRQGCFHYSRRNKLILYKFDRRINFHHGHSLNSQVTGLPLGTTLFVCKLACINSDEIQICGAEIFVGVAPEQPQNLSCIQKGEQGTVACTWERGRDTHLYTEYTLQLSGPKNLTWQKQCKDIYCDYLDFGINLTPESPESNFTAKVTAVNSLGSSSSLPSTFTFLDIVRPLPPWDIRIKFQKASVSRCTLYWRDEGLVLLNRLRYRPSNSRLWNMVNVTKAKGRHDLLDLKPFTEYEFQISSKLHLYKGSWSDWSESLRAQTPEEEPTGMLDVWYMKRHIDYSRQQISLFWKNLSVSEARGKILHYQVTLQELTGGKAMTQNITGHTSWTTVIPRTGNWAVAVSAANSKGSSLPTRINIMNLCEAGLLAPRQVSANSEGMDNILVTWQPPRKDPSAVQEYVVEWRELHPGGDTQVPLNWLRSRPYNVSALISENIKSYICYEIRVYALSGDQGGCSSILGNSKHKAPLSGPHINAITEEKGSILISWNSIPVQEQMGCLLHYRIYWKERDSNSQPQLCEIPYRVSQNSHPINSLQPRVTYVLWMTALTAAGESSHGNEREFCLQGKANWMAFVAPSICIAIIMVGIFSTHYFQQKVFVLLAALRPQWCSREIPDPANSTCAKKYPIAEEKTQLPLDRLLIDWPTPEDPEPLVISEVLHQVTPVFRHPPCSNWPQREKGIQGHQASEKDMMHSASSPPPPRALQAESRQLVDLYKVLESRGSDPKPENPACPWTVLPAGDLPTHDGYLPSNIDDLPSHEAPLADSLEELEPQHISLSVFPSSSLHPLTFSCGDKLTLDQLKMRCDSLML
- experiment.summary: flow cytometry, P.E. on transfected HEK293T cells
measurement.label: dMFI
Answer with the value's number alone.

Known results for binders:
anti-IL-12Rβ2 VHH clone 3CAHS180 (VHH, not shown: small tags and cut ends, periplasmic extract) VHH: QVQLQESGGGLVQAGDSLRLSCAASGRTFDTYIVGWFRQAPGKEREFVSALSWSDDTTIRDDSLRGRFTLSRDNAKNTVYLLMNSLKPEDTAVYYCAAKAKPPAATWSSYRNREWYDYWGQGTQVTVSS
1010
anti-IL-12Rβ2 VHH clone 3CRHS109 (VHH, not shown: small tags and cut ends, periplasmic extract) VHH: QVQLQESGGGLVQPGGSLRLSCAASGFTFSTSGMHWFRQAPGKGLEWVSSIGIIVDSSYYASSVKGRFTISRDNAKNTLYLHMNSLKSEDTAVYYCSKDVTGSSRGQGTQVTVSS
1260
anti-IL-12Rβ2 VHH clone 3CRH67 (VHH, not shown: small tags and cut ends, periplasmic extract) VHH: QVQLQESGGGLVQAGGSLVLSCAASGSAALIFLMSWYRQAPGKQRELVAEVSRYGSTTYADSVEGRFTISRDNAKNIVDLQMNSLKPEDTAAYYCKADQYYGDSLRSSWGRGTQVTVSS
645
anti-IL-12Rβ2 VHH clone 2CRH80 (VHH, not shown: small tags and cut ends, periplasmic extract) VHH: QVQLQESGGGLVQPGGSLRLSCAASGFTFSTSGMHWFRQAPGKGLEWVSSIGIIVGSSYYASSVKGRFTISRDNAKNTLYLHMNSLKSEDTAVYYCSKDVTGSSRGQGTQVTVSS
809
anti-IL-12Rβ2 VHH clone 3CAHS102 (VHH, not shown: small tags and cut ends, periplasmic extract) VHH: QVQLQESGGGLVQPGGSLRLSCAASGSILRINLMGWYRQVPGKQRELVAEMSTGGSTTYVDSVEGRFTISRDNAKNTVYLQMNSLKPEDTAVYYCNAKAWQLGRLENDDWGQGTQVTVSS
1090
anti-IL-12Rβ2 VHH clone 3CRHS1 (VHH, not shown: small tags and cut ends, periplasmic extract) VHH: QVQLQESGGGSVQPGGSLRLSCAASGFTFSTSGMHWFRQAPGKGLEWVSSIGIIVDSSYYASSVKGRFTISRDNAKNTLYLQMNSLKSEDTAVYYCSKDPTGSSRGQGTQVTVSS
1080
anti-IL-12Rβ2 VHH clone 3CAHS43 (VHH, not shown: small tags and cut ends, periplasmic extract) VHH: QVQLQESGGGSVQAGGSLRLSCAASGRTINAYIMGWFRQAPGKEREFVAAVSGSGGSTYYADSVKGRFTISRDNAKNTVNLQMDNLRSEDTDVYYCAATYESVYLRNPGQYDYWGQGTQVTVSS
1350
anti-IL-12Rβ2 VHH clone 3CAHS172 (VHH, not shown: small tags and cut ends, periplasmic extract) VHH: QVQLQESGGGSVQAGGSLRLSCGASGFTFSSFGMHWFRQAPGKGQEWVATISSSGGTTYYSDSVKGRFTISRDNAKNTLYLQMNSLKPEDTALYYCARDVTGAVRGQGTQVTVSS
1020

Incoming: Can you share its dMFI? I mean this binder: anti-IL-12Rβ2 VHH clone 3CRHM133 (VHH, not shown: small tags and cut ends, periplasmic extract; also called 21063) VHH: QVQLQESGGGSVQAGGSLRLSCAVSGRPVSDYAMGWFRQAPGKEREFVAALSASDTTVYPNSVKGRITISRDNAKNAVDLQMNALKPEDTAVYYCAMGPIGTFQGLARQNEYHYWGQGTQVTVSS
Outgoing: 721

Incoming: Now give it for anti-IL-12Rβ2 VHH clone 3CRH83 (VHH, not shown: small tags and cut ends, periplasmic extract) VHH: QVQLQESGGGLVQAGGSLKLSCAASGNTFSINAMAWYRQAPGQELELVAAISDVGNTIYADSMKGRFTISRGNADNTVYLQMNSLKPEDTATYYCNAGTFYTSPGDSYYRGYDFWGQGTQVTVSS too.
Outgoing: 602

Incoming: Please do the same for anti-IL-12Rβ2 VHH clone 3CRHM20 (VHH, not shown: small tags and cut ends, periplasmic extract; also called 21055) VHH: QVQLQESGGGLVQAGGSLRLSCAASGRTFSKSTMGWFRQTPGKEREFVAAITWTDTEVYANSVKDRFTISRDNAKNTFYLQMHSLKLEDTAVYYCAGDRYGSSRDSVFSSPTNYPYWGQGTQVTVSS as well.
Outgoing: 556

Incoming: Can you check anti-IL-12Rβ2 VHH clone 3CAHS39 (VHH, not shown: small tags and cut ends, periplasmic extract) VHH: QVQLQESGGGLVQAGGSLRLSCAASGRTINAYIMGWFRQAPGKEREFVAAVSGSGGSTYYADSVKGRFTISRDNAKNTVNLQMDNLRSEDTDVYYCAATYESVYLQNPGQYDYWGQGTQVTVSS next?
Outgoing: 918

Incoming: Param item: anti-IL-12Rβ2 VHH clone 3CRH28 (VHH, not shown: small tags and cut ends, periplasmic extract) VHH: QVQLQESGGGLVQPGGSLTLSCAASGFTFSSNAMSWVRQAPGKGLEWVSSISSGGGTTYYTDSVKGRFTTARDNAKNTLYLRMNSLKPEDTAVYYCSKSSTGSGSRGQGTQVTVSS
Outgoing: 1110

Incoming: # iterate: anti-IL-12Rβ2 VHH clone 3CRHS9 (VHH, not shown: small tags and cut ends, periplasmic extract) VHH: QVQLQESGGGLVQPGGSLRLSCTASGSIVSIYNMDWYRQAPGNEREWVASITSSGDPYYDGSAKGRFTISRDNAKMTVYLQMNSLKPEDTAVYYCKVPTEKGNYWGQGTQVTVSS
Outgoing: 1040

Incoming: Then this binder: anti-IL-12Rβ2 VHH clone 3CAHS41 (VHH, not shown: small tags and cut ends, periplasmic extract) VHH: QVQLQESGGGLVQAGDSLRLSCAASGRTFDTYIVGWFRQAPGKEREFVSALSWSDDTTIRDDSLRGRFTISRDNAKNTVYLLMNSLKPEDTAVYYCAAKAKPPAATWSSYRNREWYDYWGQGTQVTVSS
Outgoing: 1070
